Below, each entry is listed with its recorded EC50.
Target Or Test System: human β3 adrenergic receptor (Homo sapiens, UniProt P13945)
Construct: expressed in transfected cells; host or cells: Chinese hamster ovary (CHO) cells, stably transfected
Sequence (P13945 whole entry): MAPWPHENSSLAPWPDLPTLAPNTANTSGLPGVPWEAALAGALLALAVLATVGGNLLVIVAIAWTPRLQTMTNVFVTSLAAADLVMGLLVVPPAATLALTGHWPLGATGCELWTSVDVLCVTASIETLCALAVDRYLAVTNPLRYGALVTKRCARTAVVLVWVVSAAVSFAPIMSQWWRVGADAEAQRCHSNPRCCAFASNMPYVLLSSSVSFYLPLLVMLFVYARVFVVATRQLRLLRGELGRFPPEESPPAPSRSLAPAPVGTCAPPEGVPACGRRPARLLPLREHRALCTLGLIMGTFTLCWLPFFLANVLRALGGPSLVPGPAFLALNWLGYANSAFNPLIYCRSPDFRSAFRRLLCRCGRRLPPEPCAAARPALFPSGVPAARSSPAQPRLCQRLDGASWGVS
Assay Remarks: Functional assay: cAMP production (LANCE TR-FRET) in CHO cells stably transfected with cloned β3 adrenergic receptor
Assay type: cell-based
Experimental Parameters: Table 8; read-out: Human β3 Functional
Assay Readout: EC50

>>> value_reported("CN(Cc1cscn1)C(=O)Nc1ccc(C[C@@H]2CC[C@H]([C@H](O)c3ccccc3)N2)cc1 [Example 253]")
"11 to 100 nM"
>>> value_reported("O=C1OC2(CCN(C(=O)Nc3ccc(C[C@@H]4CC[C@H]([C@H](O)c5ccccc5)N4)cc3)CC2)c2cnccc21 [Example 259]")
"101 to 1000 nM"
>>> value_reported("O=C(NCc1nnc(-c2ccccc2)[nH]1)Nc1ccc(C[C@@H]2CC[C@H]([C@H](O)c3ccccc3)N2)cc1 [Example 255]")
"1 to 10 nM"
>>> value_reported("O=C(Nc1ccc(C[C@@H]2CC[C@H]([C@H](O)c3ccccc3)N2)cc1)N1CCc2cccnc21 [Example 257]")
"101 to 1000 nM"
>>> value_reported("O=C(Nc1ccc(C[C@@H]2CC[C@H]([C@H](O)c3ccccc3)N2)cc1)N1CCC2(CCOC2=O)CC1 [Example 258]")
"101 to 1000 nM"
>>> value_reported("Cc1cc(C)nc(CNC(=O)Nc2ccc(C[C@@H]3CC[C@H]([C@H](O)c4ccccc4)N3)cc2)n1 [Example 256]")
"11 to 100 nM"
>>> value_reported("O=C(NCc1ccccc1F)Nc1ccc(C[C@@H]2CC[C@H]([C@H](O)c3ccccc3)N2)cc1 [Example 254]")
"101 to 1000 nM"
>>> value_reported("CC(NC(=O)Nc1ccc(C[C@@H]2CC[C@H]([C@H](O)c3ccccc3)N2)cc1)c1cscn1 (some centres unmarked) [Example 252]")
"101 to 1000 nM"

Hello, the source for this data is patent US8399480B2, in case you need it.
